Data provenance is PubChem BioAssay (NCI).

- Test system: MOLT-4 leukemia
- assayProcedure: NCI-60 one-dose screen, 48 h (100 = growth as untreated, 0 = no growth, -100 = all killed)
- experimentalContext: 10 µM unless noted
About 83,000 compounds went through this panel and 20% of them were active in at least one assay; those are over-represented in the sample as a whole.
The following compounds are shown together with reported growth values.

[
  {
    "structureString": "CCOC(=O)c1cccc(NC2=C(Cl)C(=O)C(C)=C(C)C2=O)c1",
    "growth [%]": 5.67
  },
  {
    "structureString": "C1=CC(c2nn3c(-c4ccccc4)nnc3s2)=Cc2ccccc2O1",
    "growth [%]": 39.2
  },
  {
    "structureString": "NCCNC(=O)c1cccc(COc2ccccc2NC(=O)c2cc(Br)c(Br)[nH]2)c1",
    "growth [%]": 68.7
  },
  {
    "structureString": "C#C[C@]1(O)CC[C@H]2[C@@H]3CC=C4c5sc(Nc6cccc(F)c6)nc5CC[C@]4(C)[C@H]3CC[C@@]21C",
    "growth [%]": 5.5
  },
  {
    "structureString": "CC(C)(O)c1cncc(-c2ccc3ncc(C#N)c(N4CCc5cc(F)c(Cl)cc54)c3c2)c1",
    "growth [%]": 5.17
  },
  {
    "structureString": "C=C(C)[C@@H]1CC[C@]2(C(=O)N3CCN(C)CC3)CC[C@]3(C)[C@H](CC[C@@H]4[C@@]5(C)CC[C@H](OP(=O)(OCC)OCC)C(C)(C)[C@@H]5CC[C@]43C)[C@@H]12",
    "growth [%]": 36.3
  },
  {
    "structureString": "O=C(COc1ccc(/C=C2\\C(=O)Nc3ccc(Cl)cc32)cc1)Nc1ccc(Cl)cc1",
    "growth [%]": 55.5
  },
  {
    "structureString": "CC1(C)CC[C@]23CC[C@]4(C)[C@H](CC[C@@H]5[C@@]6(C)CC[C@H](NCO)C(C)(C)[C@@H]6CC[C@]54C)[C@H]2[C@H]1OC3",
    "growth [%]": 15
  },
  {
    "structureString": "O=[N+]([O-])c1ccc(NC(=S)NNC(=S)Nc2ccc(Br)cc2)cc1",
    "growth [%]": 74.9
  },
  {
    "structureString": "CC(=O)Nc1ccccc1-c1nc2ccccc2s1",
    "growth [%]": 104
  },
  {
    "structureString": "CNC(=O)c1cc(-n2ccc3cc(NC(=O)Nc4ccc(N5CCN(C)CC5)c(C(F)(F)F)c4)ccc32)ccn1",
    "growth [%]": -12.8
  },
  {
    "structureString": "C#C[C@]1(O)CC[C@H]2[C@@H]3CC=C4c5sc(N6CCN(C)CC6)nc5CC[C@]4(C)[C@H]3CC[C@@]21C",
    "growth [%]": 1.27
  },
  {
    "structureString": "CN(C)c1ccc(/C=N/Nc2nc(N/N=C/c3ccc(N(C)C)cc3)nc(N3CCCCC3)n2)cc1",
    "growth [%]": 12.1
  },
  {
    "structureString": "O=C(/C=C/c1ccccc1)c1cccc(O)c1",
    "growth [%]": 85.2
  },
  {
    "structureString": "CCOC(=O)c1ccc(NC2=CC(=O)C(C)=C(C)C2=O)cc1",
    "growth [%]": 41.3
  },
  {
    "structureString": "COc1ccc(/C=N/NC(=O)CSc2nc(-c3cnccn3)cc(-c3cccs3)c2C#N)cc1",
    "growth [%]": 73.8
  },
  {
    "structureString": "CCN(CC)c1ccc(/C=N/NC(=O)c2ccc(S(N)(=O)=O)cc2)c(O)c1",
    "growth [%]": 11.2
  },
  {
    "structureString": "CN1CCN(CCCCCC(=O)Nc2nc(-c3cccc(NS(=O)(=O)c4cccc5c(N(C)C)cccc45)c3)cs2)CC1",
    "growth [%]": 39.5
  }
]
